# System Under Test: T1, human serum albumin (human, UniProt P02768 25-609)
# T1 construct: Immobilised on SPR chips; also added in solution to the cell assays; also called HSA; humanSA
# Test Protocol: SPR Biacore 3000, HSA on chip, pH 5.5
Metric: R0 pH5.5

Binder	Metric	Endpoint Result
TA-Fc-ABDEG-2H11 (2H11 parental fused at the C-terminus of Fc-ABDEG) (Fc fusion) DKTHTCPPCPAPELLGGPSVFLFPPKPKDTLYITREPEVTCVVVDVSHEDPEVKFNWYVDGVEVHNAKTKPREEQYNSTYRVVSVLTVLHQDWLNGKEYKCKVSNKALPAPIEKTISKAKGQPREPQVYTLPPSRDELTKNQVSLTCLVKGFYPSDIAVEWESNGQPENNYKTTPPVLDSDGSFFLYSKLTVDKSRWQQGNVFSCSVMHEALKFHYTQKSLSLSPGGGGGSGGGGSGGGGSGGGGSELQVVESGGGLVQAGGSLRLSCAASGRTFRSNTMGWFRQAPGKEREFVAAITWSGGTTYYADSVKGRFAISGDNAKNTVYLQMNSLKPEDTAVYYCAAEGPKWEPWNGIYHPADFGSWGQGTQVTVSS	R0 pH5.5	351 RU
TA-Fc-ABDEG-2H11-v12 (Fc fusion, Scaffold as for m24) DKTHTCPPCPAPELLGGPSVFLFPPKPKDTLYITREPEVTCVVVDVSHEDPEVKFNWYVDGVEVHNAKTKPREEQYNSTYRVVSVLTVLHQDWLNGKEYKCKVSNKALPAPIEKTISKAKGQPREPQVYTLPPSRDELTKNQVSLTCLVKGFYPSDIAVEWESNGQPENNYKTTPPVLDSDGSFFLYSKLTVDKSRWQQGNVFSCSVMHEALKFHYTQKSLSLSPGGGGGSGGGGSGGGGSGGGGSELQVVESGGGLVQAGGSLRLSCAASGRTFRSNTMGWFRQAPGKEREFVAAITWSGGTTYYADSVKGRFAISGDNAKNTVYLQMNSLKPEDTAVYYCAAEGPKWEPWNGIAHPADFGSWGQGTQVTVSS	R0 pH5.5	93.9 RU
